Recorded IC50 for compounds tested on Substance-P receptor (Homo sapiens), drawn from a number of studies.

Substance-P receptor (Homo sapiens) data for `Cc1cc2c(-c3ccccc3)c(C(=O)N(C)Cc3cc(C(F)(F)F)cc(C(F)(F)F)c3)n(C)c(=O)c2cc1C` ; its IC50: 8.4 nM

Substance-P receptor (Homo sapiens) data for `CN(Cc1cc(C(F)(F)F)cc(C(F)(F)F)c1)C(=O)c1cnc2ccccc2c1-c1ccccc1` ; its IC50: 0.52 nM

Substance-P receptor (Homo sapiens) data for `Cc1cc(F)ccc1-c1cc(N2CCC(C(C)(C)C(=O)O)CC2)ncc1N(C)C(=O)C(C)(C)c1cc(C(F)(F)F)cc(C(F)(F)F)c1` ; its IC50: 4.65 nM

Substance-P receptor (Homo sapiens) data for C[n+]1ccc(C(=O)NCC(COCc2cc(C(F)(F)F)cc(C(F)(F)F)c2)c2ccccc2)cc1 (stereo not drawn) ; its IC50: 5.9 nM

Substance-P receptor (Homo sapiens) data for `COc1ccccc1CN(C)C(=O)c1c(-c2ccccc2C)c2ccccc2c(=O)n1C` ; its IC50: 16 nM

Substance-P receptor (Homo sapiens) data for `COc1ccccc1CN(C)C(=O)c1c(-c2ccccc2)c2cc(C)c(C)cc2c(=O)n1C` ; its IC50: 98 nM

Substance-P receptor (Homo sapiens) data for `Cc1ccccc1-c1c(C(=O)N(C)Cc2cc(C(F)(F)F)cc(C(F)(F)F)c2)c(=O)oc2ccc(Cl)cc12` ; its IC50: 16 nM
